Tested on: Human ovarian cancer cell strain OVCAR-8
ASSAY_METHOD_TEXT: MTT assay, inhibition of tumor cell growth in vitro, 72 h
Assay type: cell-based
RECORDED_CONDITIONS: Homo sapiens, OVCAR-8, MTT, read-out: Antitumor proliferative activities of tumor cell (IC50, μM) OVCAR-8
Assignment: determine reported IC50 for the given compounds.
Give a bare numeral; the unit µM is implied.

Item under review: Cn1ncc(Cl)c1-c1cc(C(=O)N[C@@H]2CNC(CCN3CCCC3)C[C@H]2c2ccc(Cl)c(Cl)c2)oc1Cl (stereo partly shown) . Reported IC50? 1.21

Item under review: Cn1ncc(Br)c1-c1coc(C(=O)N[C@H]2CNC[C@@H]2c2ccc(F)c(F)c2)c1 (racemic) . Reported IC50? 4.19

Item under review: Cn1ncc(Cl)c1-c1ccc(C(=O)N[C@@H]2CNCC[C@H]2c2ccc(F)c(F)c2)cc1-c1ccoc1 . Reported IC50? 2.43

Item under review: CC(=O)NCCC1C[C@@H](c2ccc(F)c(F)c2)[C@H](NC(=O)c2cc(-c3c(Cl)cnn3C)c(Cl)o2)CN1 (stereo partly shown) . Reported IC50? 0.47

---

Test system: human colon cancer cell strain HCT-116
ASSAY_METHOD_TEXT: MTT assay, inhibition of tumor cell growth in vitro, 72 h
Assay type: cell-based
RECORDED_CONDITIONS: Homo sapiens, HCT-116, MTT, read-out: Antitumor proliferative activities of tumor cell (IC50, μM) HCT-116 (converted)
# class 1 = IC50 below 3 µM (exclusive); class 0 = IC50 at/above 3 µM

Dear reviewer, please state whether Cn1ncc(Cl)c1-c1cc(C(=O)N[C@@H]2CNC(CCn3cncn3)C[C@H]2c2ccc(Cl)c(Cl)c2)oc1Cl (stereo partly shown) has IC50 strictly beneath 3 µM. class 1

Dear reviewer, please state whether CCc1cnn(C)c1-c1cc(F)c(C(=O)N[C@@H]2CNCC[C@H]2c2ccc(Cl)c(C(F)(F)F)c2)c(F)c1 has IC50 strictly beneath 3 µM. class 1

Dear reviewer, please state whether Cc1cc(-c2c(Cl)cnn2C)cc(C(=O)N[C@H]2CNCC[C@@H]2c2ccccc2)n1 (relative stereo) has IC50 strictly beneath 3 µM. class 0

Dear reviewer, please state whether Cc1cnn(C)c1-c1cnc(C(=O)N[C@H]2CNC[C@@H]2c2ccc(F)c(F)c2)cc1F (racemic) has IC50 strictly beneath 3 µM. class 0

Dear reviewer, please state whether Cn1nccc1-c1coc(C(=O)N[C@H]2CNCC[C@@H]2c2ccc(F)c(F)c2)c1 (racemic) has IC50 strictly beneath 3 µM. class 0

Dear reviewer, please state whether Cn1nccc1-c1ccc(C(=O)N[C@@H]2CNCC[C@H]2c2ccc(F)c(F)c2)cc1 has IC50 strictly beneath 3 µM. class 1

Dear reviewer, please state whether CCc1cnn(C)c1-c1cc(C(=O)N[C@H]2CNCC[C@@H]2c2ccc(Cl)cc2)nc(C)n1 (racemic) has IC50 strictly beneath 3 µM. class 0

Dear reviewer, please state whether C[C@H]1CNC[C@@H](NC(=O)c2cc(-c3c(Cl)cnn3C)c(Cl)s2)[C@@H]1c1cccc(F)c1 has IC50 strictly beneath 3 µM. class 1

Dear reviewer, please state whether Cn1ncc(-c2ccncc2)c1-c1ccc(C(=O)N[C@@H]2CNCC[C@H]2c2cccc(F)c2)s1 has IC50 strictly beneath 3 µM. class 1

Dear reviewer, please state whether CCc1cc(C(=O)N[C@@H]2CNCC[C@H]2c2ccc(C(F)(F)F)cc2)cnc1-c1c(Br)cnn1C has IC50 strictly beneath 3 µM. class 0
